- tested-target: Neutrophil elastase (Homo sapiens, UniProt P08246)
- Sequence (P08246 whole entry): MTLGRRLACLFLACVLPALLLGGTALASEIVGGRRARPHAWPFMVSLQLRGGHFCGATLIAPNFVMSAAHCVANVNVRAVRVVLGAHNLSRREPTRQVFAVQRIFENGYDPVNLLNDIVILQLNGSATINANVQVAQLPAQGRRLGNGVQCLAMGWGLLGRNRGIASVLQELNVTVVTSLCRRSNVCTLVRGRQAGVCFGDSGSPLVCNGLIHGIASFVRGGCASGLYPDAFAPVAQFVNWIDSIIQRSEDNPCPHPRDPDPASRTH
- test: Inhibitory activity against human leukocyte elastase (HL elastase) expressed as inhibitory constant
# log10 of Ki listing for each entry below
parameter: log10 of Ki (log10 of the value in µM)

| molecule | tested-target | measured-result |
| --- | --- | --- |
| O=C(Cc1cc(=O)cc(O)o1)c1ccccc1 | Neutrophil elastase (Homo sapiens, UniProt P08246) | 4.00 |
| CCCCc1c(C(CCCC)C(=O)c2ccccc2)oc(=O)c(CCCC)c1O (stereo not given) | Neutrophil elastase (Homo sapiens, UniProt P08246) | 1.98 |
| Cc1cc(O)c(C)c(=O)o1 | Neutrophil elastase (Homo sapiens, UniProt P08246) | 3.80 |
| Cc1cc(O)cc(=O)o1 [4-HYDROXY-6-METHYLPYRAN-2-ONE] | Neutrophil elastase (Homo sapiens, UniProt P08246) | 3.91 |
| Cc1oc(=O)c(C)c(O)c1C | Neutrophil elastase (Homo sapiens, UniProt P08246) | 3.69 |
| C/C=C(\c1ccccc1)c1oc(=O)c(CCCC)c(O)c1CCCC | Neutrophil elastase (Homo sapiens, UniProt P08246) | 2.56 |
| CCCCc1c(CC(C)O)oc(=O)c(CCCC)c1OC(C)=O (stereo not given) | Neutrophil elastase (Homo sapiens, UniProt P08246) | 2.54 |
| CCCCc1c(CC(C)=O)oc(=O)c(CCCC)c1O | Neutrophil elastase (Homo sapiens, UniProt P08246) | 2.69 |
| Cc1c(CC(=O)c2ccccc2)oc(=O)c(C)c1O | Neutrophil elastase (Homo sapiens, UniProt P08246) | 3.78 |
| CCCCCCC(C=O)(CCCC)c1oc(=O)c(CCCC)c(O)c1CCCC (stereo not given) | Neutrophil elastase (Homo sapiens, UniProt P08246) | 2.18 |
| Cc1c(O)cc(CC(=O)c2ccccc2)oc1=O | Neutrophil elastase (Homo sapiens, UniProt P08246) | 2.99 |
| CCCCc1c(CC(C)=O)oc(=O)c(CCCC)c1OC(C)=O | Neutrophil elastase (Homo sapiens, UniProt P08246) | 2.46 |
| CCCCc1c(C)oc(O)c(CCCC)c1=O | Neutrophil elastase (Homo sapiens, UniProt P08246) | 2.81 |
| CCCCCC(=O)C(CCCC)c1oc(=O)c(CCCC)c(O)c1CCCC (stereo not given) | Neutrophil elastase (Homo sapiens, UniProt P08246) | 1.97 |
| CCCCc1c(C2OC2C)oc(=O)c(CCCC)c1OC(C)=O (stereo not given) | Neutrophil elastase (Homo sapiens, UniProt P08246) | 2.53 |
